// data source = paper PMC10941009

Target: T1, NFIL3 R94H (human, UniProt Q16649 65-161, R94H)
T1 sequence: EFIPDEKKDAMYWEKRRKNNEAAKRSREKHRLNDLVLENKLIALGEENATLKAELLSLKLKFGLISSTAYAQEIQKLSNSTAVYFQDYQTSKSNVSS
Experiment: ITC; ITC: 20 mM Tris pH 7.5, 150 mM NaCl, 25 °C; EMSA: same buffer, 4 °C, 6% native gel in 0.5x TBE
Conditions: protein: recombinant; tags: His6-SUMO removed by TEV; chain copies: 2; blunt
Outcome measure: Kd (µM)
Respond numerically; units are µM and should not be typed.

Given the entry TTACGTAA (dsDNA) DNA 1: CATTACGTAATG DNA 2: CATTACGTAATG , report its measured Kd.
4.01
